PROTOCOL: Membrane permeabilization in eukaryotic membrane model consisting of single unilamellar vesicle of L-alpha-phosphatidylcholine-cholesterol assessed as 5(6)-carboxyfluorescein release at high peptide-to-lipid ratio after 20 mins by fluorescence assay
Assay type: ADME, cell membranes
Starred links: 1 amine or outer side, 2 acyl side, 3 side chain; linkers in the order of their positions; H or OH if unused. Non-standard residues stand in square brackets, D forms with d. Residues, ends and D or L forms follow the SMILES beside them. Gly(N-(CH2)3-guanidino) = N=C(N)NCCCNCC(=O)O; X1 = N=C(N)NCCN(CC(=O)[*:2])[*:1]

| MOLECULE | Activity |
| --- | --- |
| CC[C@H](C)[C@H](NC(=O)[C@H](Cc1ccc(O)cc1)NC(=O)[C@@H](NC(=O)[C@@H]1CCCN1C(=O)[C@H](CCCNC(=N)N)NC(=O)[C@H](CC(N)=O)NC(=O)[C@H](CC(N)=O)NC(=O)CN)C(C)C)C(=O)N1CCC[C@H]1C(=O)N[C@@H](CCC(N)=O)C(=O)N1CCC[C@H]1C(=O)N[C@@H](CCCNC(=N)N)C(=O)N1CCC[C@H]1C(=O)N[C@@H](Cc1cnc[nH]1)C(=O)N1CCC[C@H]1C(=O)N[C@@H](CCCNC(=N)N)C(=O)N[C@@H](CC(C)C)C(=O)O (H-GNNRPVYIPQPRPHPRL-OH) | Not Active |
| CC[C@H](C)[C@H](NC(=O)[C@H](Cc1ccc(O)cc1)NC(=O)[C@@H](NC(=O)[C@@H]1CCCN1C(=O)[C@H](CCCNC(=N)N)NC(=O)[C@H](CC(N)=O)NC(=O)[C@H](CC(N)=O)NC(=O)CN)C(C)C)C(=O)N1CCC[C@H]1C(=O)N[C@@H](CCC(N)=O)C(=O)N1CCC[C@H]1C(=O)N[C@@H](CCCNC(=N)N)C(=O)N1CCC[C@H]1C(=O)N1CCC[C@H]1C(=O)N[C@@H](Cc1cnc[nH]1)C(=O)N1CCC[C@H]1C(=O)N(CCNC(=N)N)CC(=O)N[C@@H](CC(C)C)C(=O)O (H-GNNRPVYIPQPRPPHP[X1]L-OH) | Not Active |
| CC[C@H](C)[C@H](NC(=O)[C@H](Cc1ccc(O)cc1)NC(=O)[C@@H](NC(=O)[C@@H]1CCCN1C(=O)[C@H](CCCNC(=N)N)NC(=O)[C@H](CC(N)=O)NC(=O)[C@H](CC(N)=O)NC(=O)CN)C(C)C)C(=O)N1CCC[C@H]1C(=O)N[C@@H](CCC(N)=O)C(=O)N1CCC[C@H]1C(=O)N(CCCNC(=N)N)CC(=O)N1CCC[C@H]1C(=O)N1CCC[C@H]1C(=O)N[C@@H](Cc1cnc[nH]1)C(=O)N1CCC[C@H]1C(=O)N[C@@H](CCCNC(=N)N)C(=O)N[C@@H](CC(C)C)C(=O)O (H-GNNRPVYIPQP[Gly(N-(CH2)3-guanidino)]PPHPRL-OH) | Not Active |

* * *

Tested on: Salmonella enterica subsp. enterica
PROTOCOL: Antimicrobial activity against Salmonella enteritidis D5 after 18 hrs by broth microdilution susceptibility test
Assay type: functional, Salmonella enterica subsp. enterica serovar Enteritidis
PARTICULARS: D5, 18 h
Non-standard residues stand in square brackets, D forms with d. Residues, ends and D or L forms follow the SMILES beside them. Gly(N-(CH2)3-guanidino) = N=C(N)NCCCNCC(=O)O
TEST READOUT: MIC (µM)
Kindly provide the numeric value in µM only, without the unit symbol.

Task: I'm curious: which MIC was measured for CC[C@H](C)[C@H](NC(=O)[C@H](Cc1ccc(O)cc1)NC(=O)[C@@H](NC(=O)[C@@H]1CCCN1C(=O)[C@H](CCCNC(=N)N)NC(=O)[C@H](CC(N)=O)NC(=O)[C@H](CC(N)=O)NC(=O)CN)C(C)C)C(=O)N1CCC[C@H]1C(=O)N[C@@H](CCC(N)=O)C(=O)N1CCC[C@H]1C(=O)N(CCCNC(=N)N)CC(=O)N1CCC[C@H]1C(=O)N1CCC[C@H]1C(=O)N[C@@H](Cc1cnc[nH]1)C(=O)N1CCC[C@H]1C(=O)N[C@@H](CCCNC(=N)N)C(=O)N[C@@H](CC(C)C)C(=O)O (H-GNNRPVYIPQP[Gly(N-(CH2)3-guanidino)]PPHPRL-OH) tested on Salmonella enterica subsp. enterica?
Output: 16

* * *

System: Salmonella enterica subsp. enterica
PROTOCOL: Antimicrobial activity against Salmonella enteritidis D5 after 18 hrs by broth microdilution susceptibility test
Format: functional, Salmonella enterica subsp. enterica serovar Enteritidis
PARTICULARS: D5, 18 h
Non-standard residues stand in square brackets, D forms with d. Residues, ends and D or L forms follow the SMILES beside them. Gly(N-(CH2)3-guanidino) = N=C(N)NCCCNCC(=O)O
# MIC per entry
Kindly provide the numeric value in µM only, without the unit symbol.

| COMPOUND | MIC / µM |
| --- | --- |
| CC[C@H](C)[C@H](NC(=O)[C@H](Cc1ccc(O)cc1)NC(=O)[C@@H](NC(=O)[C@@H]1CCCN1C(=O)CN(CCCNC(=N)N)C(=O)[C@H](CC(N)=O)NC(=O)[C@H](CC(N)=O)NC(=O)CN)C(C)C)C(=O)N1CCC[C@H]1C(=O)N[C@@H](CCC(N)=O)C(=O)N1CCC[C@H]1C(=O)N[C@@H](CCCNC(=N)N)C(=O)N1CCC[C@H]1C(=O)N1CCC[C@H]1C(=O)N[C@@H](Cc1cnc[nH]1)C(=O)N1CCC[C@H]1C(=O)N[C@@H](CCCNC(=N)N)C(=O)N[C@@H](CC(C)C)C(=O)O (H-GNN[Gly(N-(CH2)3-guanidino)]PVYIPQPRPPHPRL-OH) | 32 |

Task: I'm curious: which MIC was measured for CC[C@H](C)[C@H](NC(=O)[C@H](Cc1ccc(O)cc1)NC(=O)[C@@H](NC(=O)[C@@H]1CCCN1C(=O)[C@H](CCCNC(=N)N)NC(=O)[C@H](CC(N)=O)NC(=O)[C@H](CC(N)=O)NC(=O)CN)C(C)C)C(=O)N1CCC[C@H]1C(=O)N[C@@H](CCC(N)=O)C(=O)N1CCC[C@H]1C(=O)N[C@@H](CCCNC(=N)N)C(=O)N1CCC[C@H]1C(=O)N1CCC[C@H]1C(=O)N[C@@H](Cc1cnc[nH]1)C(=O)N1CCC[C@H]1C(=O)N[C@@H](CCCNC(=N)N)C(=O)N[C@@H](CC(C)C)C(=O)O tested on Salmonella enterica subsp. enterica?
Output: 8

* * *

# hemolysis at 1 h, 300 µM per entry
PROTOCOL: Toxicity in human erythrocytes assessed as hemolytic activity at 300 uM after 60 mins
Format: cell-based, Erythrocyte
PARTICULARS: read-out: Activity
Starred links: 1 amine or outer side, 2 acyl side, 3 side chain; linkers in the order of their positions; H or OH if unused. Non-standard residues stand in square brackets, D forms with d. Residues, ends and D or L forms follow the SMILES beside them. Gly(N-(CH2)3-guanidino) = N=C(N)NCCCNCC(=O)O; X1 = N=C(N)NCCN(CC(=O)[*:2])[*:1]
Kindly provide the numeric value in % only, without the unit symbol.

| COMPOUND | TEST READOUT | UNIT NAME | VALUE MEASURED |
| --- | --- | --- | --- |
| CC[C@H](C)[C@H](NC(=O)[C@H](Cc1ccc(O)cc1)NC(=O)[C@@H](NC(=O)[C@@H]1CCCN1C(=O)[C@H](CCCNC(=N)N)NC(=O)[C@H](CC(N)=O)NC(=O)[C@H](CC(N)=O)NC(=O)CN)C(C)C)C(=O)N1CCC[C@H]1C(=O)N[C@@H](CCC(N)=O)C(=O)N1CCC[C@H]1C(=O)N(CCNC(=N)N)CC(=O)N1CCC[C@H]1C(=O)N1CCC[C@H]1C(=O)N[C@@H](Cc1cnc[nH]1)C(=O)N1CCC[C@H]1C(=O)N[C@@H](CCCNC(=N)N)C(=O)N[C@@H](CC(C)C)C(=O)O (H-GNNRPVYIPQP[X1]PPHPRL-OH) | hemolysis at 1 h, 300 µM | % | 0.87 |

Consider the record given below.
Task: Entry CC[C@H](C)[C@H](NC(=O)[C@H](Cc1ccc(O)cc1)NC(=O)[C@@H](NC(=O)[C@@H]1CCCN1C(=O)[C@H](CCCNC(=N)N)NC(=O)[C@H](CC(N)=O)NC(=O)[C@H](CC(N)=O)NC(=O)CN)C(C)C)C(=O)N1CCC[C@H]1C(=O)N[C@@H](CCC(N)=O)C(=O)N1CCC[C@H]1C(=O)N[C@@H](CCCNC(=N)N)C(=O)N1CCC[C@H]1C(=O)N1CCC[C@H]1C(=O)N[C@@H](Cc1cnc[nH]1)C(=O)N1CCC[C@H]1C(=O)N(CCCNC(=N)N)CC(=O)N[C@@H](CC(C)C)C(=O)O (H-GNNRPVYIPQPRPPHP[Gly(N-(CH2)3-guanidino)]L-OH) : reported hemolysis at 1 h, 300 µM = ?
Output: 0.44
